The measurements presented in this section are drawn from PubChem BioAssay (Tox21).

tested-on: Cytochrome P450 1A2 (Homo sapiens) (UniProt P05177)
Sequence (P05177 whole entry, looked up): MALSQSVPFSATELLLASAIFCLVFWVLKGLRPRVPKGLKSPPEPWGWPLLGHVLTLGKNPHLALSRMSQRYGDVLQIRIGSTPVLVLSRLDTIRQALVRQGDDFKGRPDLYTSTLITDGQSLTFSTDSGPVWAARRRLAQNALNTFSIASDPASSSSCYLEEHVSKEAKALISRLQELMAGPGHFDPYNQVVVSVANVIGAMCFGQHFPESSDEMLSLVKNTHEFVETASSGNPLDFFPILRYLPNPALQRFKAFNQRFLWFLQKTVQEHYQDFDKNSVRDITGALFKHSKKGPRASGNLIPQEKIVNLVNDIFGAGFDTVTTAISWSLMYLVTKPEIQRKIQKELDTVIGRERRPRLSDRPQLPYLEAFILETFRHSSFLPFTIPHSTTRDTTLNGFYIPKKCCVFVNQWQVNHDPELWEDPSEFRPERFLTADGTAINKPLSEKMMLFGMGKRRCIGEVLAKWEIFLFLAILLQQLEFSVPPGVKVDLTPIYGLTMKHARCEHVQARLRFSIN
assay-name: Cytochrome P450 Family 1 Subfamily A Member 2 (CYP1A2) small molecule antagonists: luciferase reporter qHTS assay (AID 1671199); note: nearly all actives have a fitted effect of over 50% in size; note: potency is the fitted concentration of half-maximal effect
condition-details: P450-Glo CYP1A2 enzyme, luciferin luminescence, 1 h; series mostly up to 115 µM
Inconclusive results are not listed. The source made the active and inactive calls. Calls come from the whole dose curve; as a rule, active = well fitted inhibition curve with a large enough effect in the repeat runs; inconclusive = weak or mixed curves; inactive = no such curve, though single readings can be large or run the other way.
assay-metric: Potency

{"columns": ["molecule", "tested-on", "readout-value"],
 "data": [
  ["CCCCCCC(=O)c1ccccc1", "Cytochrome P450 1A2 (Homo sapiens) (UniProt P05177)", "50.2 µM (active)"],
  ["O=S(=O)(O)c1cc(I)c(O)c2ncccc12", "Cytochrome P450 1A2 (Homo sapiens) (UniProt P05177)", "inactive"],
  ["COc1cnc(NS(=O)(=O)c2ccc(N)cc2)nc1", "Cytochrome P450 1A2 (Homo sapiens) (UniProt P05177)", "inactive"],
  ["CCCCCCCCCCCC(C)=O", "Cytochrome P450 1A2 (Homo sapiens) (UniProt P05177)", "inactive"],
  ["CCC(C)(C)C", "Cytochrome P450 1A2 (Homo sapiens) (UniProt P05177)", "37.7 µM (active)"],
  ["CC(O)C(CO)C(C)O (stereo not drawn)", "Cytochrome P450 1A2 (Homo sapiens) (UniProt P05177)", "32.1 µM (active)"],
  ["C[Si](C)(C)O[Si](O)(O)O", "Cytochrome P450 1A2 (Homo sapiens) (UniProt P05177)", "inactive"],
  ["CC(=O)SC[C@@H](C)C(=O)N1CCC[C@H]1C(=O)N[C@@H](Cc1ccccc1)C(=O)O", "Cytochrome P450 1A2 (Homo sapiens) (UniProt P05177)", "inactive"],
  ["Cc1nc2ccc(Cl)cc2[nH]1", "Cytochrome P450 1A2 (Homo sapiens) (UniProt P05177)", "2.82 µM (active)"],
  ["O=C(O)Cc1c(Cl)ccc(Cl)c1Cl", "Cytochrome P450 1A2 (Homo sapiens) (UniProt P05177)", "25.2 µM (active)"],
  ["COc1cc(OC)cc(OC)c1", "Cytochrome P450 1A2 (Homo sapiens) (UniProt P05177)", "17.4 µM (active)"],
  ["Nc1ccc(C(=O)NCC(=O)O)cc1", "Cytochrome P450 1A2 (Homo sapiens) (UniProt P05177)", "inactive"],
  ["CO/N=C(\\C(=O)O)c1csc(NC(=O)CCl)n1", "Cytochrome P450 1A2 (Homo sapiens) (UniProt P05177)", "inactive"],
  ["CCO/C=C1\\N=C(c2ccccc2)OC1=O", "Cytochrome P450 1A2 (Homo sapiens) (UniProt P05177)", "35.5 µM (active)"],
  ["C=CCN(CC=C)CC=C", "Cytochrome P450 1A2 (Homo sapiens) (UniProt P05177)", "inactive"],
  ["CN1CCN(C(=O)C2CCCCC2)CC1", "Cytochrome P450 1A2 (Homo sapiens) (UniProt P05177)", "inactive"],
  ["CCCCC(CC)CCC(CC(C)C)OS(=O)(=O)O (stereo not drawn)", "Cytochrome P450 1A2 (Homo sapiens) (UniProt P05177)", "inactive"],
  ["CCCC(C)C(O)CC (stereo not drawn)", "Cytochrome P450 1A2 (Homo sapiens) (UniProt P05177)", "inactive"],
  ["CCCCCCCCCCCCCCBr", "Cytochrome P450 1A2 (Homo sapiens) (UniProt P05177)", "inactive"],
  ["CC(C)(C)c1ccc(N)cc1", "Cytochrome P450 1A2 (Homo sapiens) (UniProt P05177)", "inactive"],
  ["COC(=O)c1ccc(C(=O)O)cc1", "Cytochrome P450 1A2 (Homo sapiens) (UniProt P05177)", "inactive"],
  ["Nc1cc(S(=O)(=O)O)ccc1O", "Cytochrome P450 1A2 (Homo sapiens) (UniProt P05177)", "inactive"],
  ["C[C@@H](CN1CC(=O)NC(=O)C1)N1CC(=O)NC(=O)C1", "Cytochrome P450 1A2 (Homo sapiens) (UniProt P05177)", "inactive"],
  ["CCOC(=O)CN1CCCC1=O", "Cytochrome P450 1A2 (Homo sapiens) (UniProt P05177)", "inactive"],
  ["C=CC(C)(CCC=C(C)C)OC(=O)C(C)C (stereo not drawn)", "Cytochrome P450 1A2 (Homo sapiens) (UniProt P05177)", "inactive"],
  ["O=C1CCCc2c(O)cccc21", "Cytochrome P450 1A2 (Homo sapiens) (UniProt P05177)", "34.7 µM (active)"],
  ["CC(C)(C)C(=O)NCCCC(=O)O", "Cytochrome P450 1A2 (Homo sapiens) (UniProt P05177)", "inactive"],
  ["CC(C)(O)CCCC1=CCC(C=O)CC1 (stereo not drawn)", "Cytochrome P450 1A2 (Homo sapiens) (UniProt P05177)", "38 µM (active)"],
  ["Clc1ccc2c(c1)Nc1ccccc1S2", "Cytochrome P450 1A2 (Homo sapiens) (UniProt P05177)", "0.347 µM (active)"],
  ["Cc1cc(C)c(C)c(C)c1", "Cytochrome P450 1A2 (Homo sapiens) (UniProt P05177)", "inactive"],
  ["COc1cc(C(=O)NC2CCCNC2)cc(OC)c1OC (stereo not drawn)", "Cytochrome P450 1A2 (Homo sapiens) (UniProt P05177)", "15.5 µM (active)"],
  ["CC(=O)c1ccc(O)c(C(N)=O)c1", "Cytochrome P450 1A2 (Homo sapiens) (UniProt P05177)", "inactive"],
  ["CC1=C(O)C(=O)CO1", "Cytochrome P450 1A2 (Homo sapiens) (UniProt P05177)", "inactive"],
  ["N=C(N)N", "Cytochrome P450 1A2 (Homo sapiens) (UniProt P05177)", "inactive"],
  ["CC(C)(O)c1ccc(C(C)(C)O)cc1", "Cytochrome P450 1A2 (Homo sapiens) (UniProt P05177)", "inactive"],
  ["C[C@@H]1CCC[C@H](C)N1CCCC(O)(c1ccccc1)c1ccccn1 (stereo partly drawn)", "Cytochrome P450 1A2 (Homo sapiens) (UniProt P05177)", "inactive"],
  ["CCNC(=O)C(C)OC(=O)Nc1ccccc1 (stereo not drawn)", "Cytochrome P450 1A2 (Homo sapiens) (UniProt P05177)", "35.6 µM (active)"],
  ["CN(C)CCC[C@@]1(c2ccc(F)cc2)OCc2cc(C#N)ccc21", "Cytochrome P450 1A2 (Homo sapiens) (UniProt P05177)", "inactive"],
  ["N=C(N)S(=O)O", "Cytochrome P450 1A2 (Homo sapiens) (UniProt P05177)", "inactive"],
  ["COC(=O)c1cc(Cl)c(NC(C)=O)cc1OC", "Cytochrome P450 1A2 (Homo sapiens) (UniProt P05177)", "2.45 µM (active)"],
  ["O=S(=O)(O)CC(O)CCl (stereo not drawn)", "Cytochrome P450 1A2 (Homo sapiens) (UniProt P05177)", "inactive"],
  ["O=C1Nc2ccccc2C1=O", "Cytochrome P450 1A2 (Homo sapiens) (UniProt P05177)", "39.6 µM (active)"],
  ["CC1(C)CC(N)CC(C)(C)N1", "Cytochrome P450 1A2 (Homo sapiens) (UniProt P05177)", "inactive"],
  ["CCCCNCC", "Cytochrome P450 1A2 (Homo sapiens) (UniProt P05177)", "19.3 µM (active)"],
  ["C=CC(=O)OCC[N+](C)(C)C", "Cytochrome P450 1A2 (Homo sapiens) (UniProt P05177)", "inactive"],
  ["Cc1cc2c(cc1CC(=O)c1sccc1S(=O)(=O)Nc1onc(C)c1Cl)OCO2", "Cytochrome P450 1A2 (Homo sapiens) (UniProt P05177)", "3.23 µM (active)"],
  ["O=C(c1ccccc1)c1cccc(O)c1", "Cytochrome P450 1A2 (Homo sapiens) (UniProt P05177)", "36.2 µM (active)"],
  ["CCCCCC(=O)CC", "Cytochrome P450 1A2 (Homo sapiens) (UniProt P05177)", "inactive"],
  ["CCCCC(CC)COC(=O)CC#N (stereo not drawn)", "Cytochrome P450 1A2 (Homo sapiens) (UniProt P05177)", "35.6 µM (active)"],
  ["Cc1ccccc1C#N", "Cytochrome P450 1A2 (Homo sapiens) (UniProt P05177)", "inactive"],
  ["CCCCN1C(=O)c2ccccc2C1=O", "Cytochrome P450 1A2 (Homo sapiens) (UniProt P05177)", "2.61 µM (active)"],
  ["Cc1ccc(NC(N)=O)cc1", "Cytochrome P450 1A2 (Homo sapiens) (UniProt P05177)", "40.2 µM (active)"],
  ["Clc1cc(Cl)c(Cl)c(Cl)c1Cl", "Cytochrome P450 1A2 (Homo sapiens) (UniProt P05177)", "inactive"]
]}
